assay: physchem; assay type: physicochemical; conditions: methanol, pH 3.8, organic solvent or mixture
measure_name: solubility (mg/mL)
Answer with a number only, understood to be in mg/mL.

Using the record for C[C@@H]1C/C=C/C=C/C=C/C=C/[C@H](O[C@@H]2O[C@H](C)[C@@H](O)[C@H](N)[C@@H]2O)C[C@@H]2O[C@](O)(C[C@@H](O)C[C@H]3O[C@@H]3/C=C/C(=O)O1)C[C@H](O)[C@H]2C(=O)O , state its measured solubility.
78

* * *

assay: physchem; type: physicochemical; conditions: methanol/water, pH 3.3, organic solvent or mixture
measure_name: solubility (mg/mL)
Answer with a number only, understood to be in mg/mL.

Using the record for C[C@@H]1C/C=C/C=C/C=C/C=C/[C@H](O[C@@H]2O[C@H](C)[C@@H](O)[C@H](N)[C@@H]2O)C[C@@H]2O[C@](O)(C[C@@H](O)C[C@H]3O[C@@H]3/C=C/C(=O)O1)C[C@H](O)[C@H]2C(=O)O , state its measured solubility.
18

# credit: patent US5591438A
